I'd appreciate it if you could supply pIC50 values for the items below.
target: Syk (Homo sapiens); test: Syk enzyme inhibition (FRET); assay type: biochemical; conditions: Table 4a1
In plain terms, pIC50 is the concentration in mol/L turned into minus its base-10 logarithm.

Form: Entry = COCCNC(=O)c1cc(Nc2nccc(Oc3ccc(NC(=O)Nc4cc(C(C)(C)C)nn4-c4ccc(C)cc4)c4ccccc34)n2)cc(OC)c1 | System = Syk (Homo sapiens) | pIC50 = ____
7.40

Then what about the molecule COc1cc(Nc2nccc(Oc3ccc(NC(=O)Nc4cc(C5(C)CC5)nn4-c4ccc(C)cc4)c4ccccc34)n2)cc(C(=O)NCCN2CCOCC2)c1 ?
6.19

Then what about the molecule COc1ccc(-n2nc(C(C)C)cc2NC(=O)Nc2ccc(Oc3ccnc(Nc4ccc(C(=O)NCCN5CCOCC5)cc4OC)n3)c3ccccc23)cc1 ?
7.27

Then what about the molecule COc1ccc(-n2nc(C(C)(C)C)cc2NC(=O)Nc2ccc(Oc3ccnc(Nc4cc(OC)cc(C(N)=O)c4)n3)c3ccccc23)cc1 ?
7.82

Then what about the molecule COc1cc(Nc2nccc(Oc3ccc(NC(=O)Nc4cc(C(C)C)nn4-c4ccc(C)cc4)c4ccccc34)n2)cc(C(=O)NCCN2CCOCC2)c1 ?
8.52

Then what about the molecule Cc1ccc(-n2nc(C(C)(C)C)cc2NC(=O)Nc2ccc(Oc3ccnc(Nc4cccc(C(N)=O)c4)n3)c3ccccc23)cc1 ?
6.60

Then what about the molecule COc1cc(Nc2nccc(Oc3ccc(NC(=O)Nc4cc(C(C)(C)C)nn4-c4ccc(C)cc4)c4ccccc34)n2)cc(C(=O)NCCO)c1 ?
7.89

Then what about the molecule COc1cc(C(=O)NCCO)ccc1Nc1nccc(Oc2ccc(NC(=O)Nc3cc(C(C)(C)C)nn3-c3ccc(C)cc3)c3ccccc23)n1 ?
6.91

Then what about the molecule COc1cc(Nc2nccc(Oc3ccc(NC(=O)Nc4cc(C5CC5)nn4-c4ccc(C)cc4)c4ccccc34)n2)cc(C(=O)NCCN2CCOCC2)c1 ?
7.49

Then what about the molecule Cc1ccc(-n2nc(C(C)C)cc2NC(=O)Nc2ccc(Oc3ccnc(Nc4cccc(C(=O)NCCN5CCOCC5)c4)n3)c3ccccc23)cc1 ?
8.40

Then what about the molecule Cc1ccc(-n2nc(C(C)C)cc2NC(=O)Nc2ccc(Oc3ccnc(Nc4cc(C)cc(C(=O)NCCN5CCOCC5)c4)n3)c3ccccc23)cc1 ?
7.77
